Test system: Vero E6 infected with SARS-CoV-2
Test: inhibition of SARS-CoV-2 cytopathic effect; higher = more antiviral protection, active = above 15
Conditions: 833.33 nM; 48 h
Outcomes: y (active), n (inactive)

> print(dat)
                                    compound  class.assignment
 1  CCN(CC)CC1CCCCN1CC(=O)N1c2ccccc2C(=O)Nc2cccnc21 (stereo not given)                 n
 2  O=C(NNC(=O)c1ccc(CNS(=O)(=O)c2ccc(F)c(Cl)c2)cc1)c1ccccc1                 n
 3  C=C(c1ccc(C(=O)O)cc1)c1cc2c(cc1C)C(C)(C)CCC2(C)C                 n
 4  CN[C@H](CNC(=O)N1CCC[C@@H]([C@@H](OCCNC(=O)OC)c2cccc(Cl)c2)C1)C[C@H]1CCCOC1                 n
 5  CNC(=O)c1cc(Oc2ccc(NC(=O)Nc3cc(C(C)(C)C)nn3-c3ccc4ncccc4c3)c(F)c2)ccn1                 n
 6         C[C@H]1CCc2c(cc(Br)c(F)c2Br)N1C=O                 n
 7   CCn1cc(C(=O)O)c(=O)c2ccc(-c3ccncc3)cc21                 n
 8  COc1cc2c(NC3CCN(C)CC3)nc(N3CCCN(C)CC3)nc2cc1OCCCN(C)C                 n
 9  Cc1ccc(/C=C2\CNC/C(=C\c3ccc(C)cc3)C2=O)cc1                 n
10  COc1ccccc1Oc1c(NS(=O)(=O)c2ccc(C(C)(C)C)cc2)nc(-c2ncccn2)nc1OCCO                 n
11  O=C(O)c1c(Sc2ccccc2)c2cc(Cl)ccc2n1Cc1ccc(Cl)cc1                 n
12  Cc1ccc(-c2nn(C(C)(C)CNC(=O)c3ncccc3C)c3ncnc(N)c23)cc1                 n
13                     c1cc(Cc2cnc[nH]2)ccn1                 n
14  Cc1cc(Nc2nc(N[C@@H](C)c3ccc(F)cc3)c(C#N)cc2F)n[nH]1                 n
15  O=C(O)c1c(Cl)c(Cl)c(Cl)c(Cl)c1-c1c2cc(I)c(=O)c(I)c-2oc2c(I)c(O)c(I)cc12                 n
16                    NCCc1c[nH]c2ccc(O)cc12                 n
17  O=C1c2c(O)cccc2C([C@@H]2O[C@H](CO)[C@@H](O)[C@H](O)[C@H]2O)c2cc(CO)cc(O)c21 (stereo not given in full)                 n
18                 C[C@@H]1O[C@@H]1P(=O)(O)O                 n
19  CC(=O)O[C@]1(C(C)=O)CC[C@H]2[C@@H]3C=C(Cl)C4=CC(=O)CC[C@]4(C)[C@H]3CC[C@@]21C [chlormadinone-acetate]                 n
20    O=C1Cc2c([nH]c3ccc(Br)cc23)-c2ccccc2N1                 n
21  Cc1ccccc1N(C)C(=O)c1ccc([S+]([O-])c2nccs2)c([N+](=O)[O-])c1 (stereo not given)                 y
22  CCCCCCNC(=O)Nc1ccc(S(=O)(=O)Nc2ccc(CCNC[C@H](O)COc3ccc(O)cc3)cc2)cc1                 n
23  CCOc1cccc(NC(=O)c2ccc(N3CCCC3)c(C(F)(F)F)c2)c1                 n
24  O=C1NC(=O)[C@@H](c2cn3c4c(cccc24)CCC3)[C@@H]1c1c[nH]c2ccccc12 [tivantinib]                 n
25  CC[C@@H](C)N(C)C(=O)c1cc2ccccc2c(-c2ccccc2Cl)n1                 n
26  Cc1noc(C)c1-c1cc(O)cc([C@@H](O)c2ccccc2)c1                 n
27         CC(=O)N1CCC(NC(=O)c2ccc(F)cc2)CC1                 n
28          N[C@]1(C(=O)O)CC[C@@H](C(=O)O)C1                 n
29  CC(C)N(CCCNC(=O)Nc1ccc(C(C)(C)C)cc1)C[C@H]1O[C@@H](n2ccc3c(N)ncnc32)[C@H](O)[C@@H]1O                 n
30                  COc1cc(/C=C/C(=O)O)ccc1O                 n

Values were extracted from the supplement of paper PMC13380429.
